Target: T1, human BDCA2 (full-length, cell surface) (human, UniProt Q8WTT0 1-213)
T1 construct: also called huBDCA2; surface human BDCA2
T1 sequence: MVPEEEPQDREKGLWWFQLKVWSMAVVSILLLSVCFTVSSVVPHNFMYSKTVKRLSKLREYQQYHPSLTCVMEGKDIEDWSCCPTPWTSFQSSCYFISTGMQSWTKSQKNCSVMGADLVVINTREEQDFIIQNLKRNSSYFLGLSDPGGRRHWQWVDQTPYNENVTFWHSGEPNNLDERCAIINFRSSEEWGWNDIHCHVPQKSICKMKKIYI
Assay: direct binding FACS, conditioned medium on CHO cells co-expressing BDCA2 and FcεRIγ
Recorded Metric: binding result

hu24F4 H1/L2 (antibody, V domains shown, Humanized variant, human IgG1/kappa, conditioned medium of 293E cells; also called H1 series of hu24F4) VH: EVQLVESGGGLVKPGGSLRLSCAASGFTFSTYTMSWVRQAPGKGLEWVSTISPGDSFGYYPDSVKGRFTISRDNAKNSLYLQMNSLRAEDTAVYYCARDIYYNYGAWFAYWGQGTLVTVSS VL: DIQLTQSPSSLSVSVGDRATISCKASQSVDYDGDSYMNWYQQKPGKAPKLLIYAASTLESGVPSRFSGSGSGTDFTLTISSVQPEDFATYYCQQSNEDPRTFGQGTKVEIK	no binding
hu24F4 H6/L2 (antibody, V domains shown, Humanized variant, human IgG1/kappa, conditioned medium of 293E cells; also called H6 series of hu24F4) VH: DVQLVESGGGLVKPGGSLRLSCAASGFTFSTYTMSWVRQAPGKGLEWVATISGGNNYGYSYPDSVKGRFTISRDNAKNSLYLQMNSLRAEDTAVYYCTRDIYYNYGAWFAYWGQGTLVTVSS VL: DIQLTQSPSSLSVSVGDRATISCKASQSVDYDGDSYMNWYQQKPGKAPKLLIYAASTLESGVPSRFSGSGSGTDFTLTISSVQPEDFATYYCQQSNEDPRTFGQGTKVEIK	binds
hu24F4 H0/L2 (antibody, V domains shown, Humanized variant, human IgG1/kappa, conditioned medium of 293E cells; also called H0 series of hu24F4) VH: EVQLVESGGGLVKPGGSLRLSCAASGFTFSTYTMSWVRQAPGKGLEWVSAISGSGGSTYYADSVKGRFTISRDNAKNSLYLQMNSLRAEDTAVYYCARDIYYNYGAWFAYWGQGTLVTVSS VL: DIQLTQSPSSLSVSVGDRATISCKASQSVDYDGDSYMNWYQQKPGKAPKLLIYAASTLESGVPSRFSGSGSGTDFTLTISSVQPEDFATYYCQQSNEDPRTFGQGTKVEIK	no binding
